- STUDY_SYSTEM: mouse TRPM3α2 (mTRPM3) ion channel (Mus musculus)
- Construct: expressed in transfected cells; host or cells: flip-in HEK293 (Flp-In HEK293) overexpressing mTRPM3alpha2
- Sequence (J9SQF3 1-1709 isoform J9SQF3-12): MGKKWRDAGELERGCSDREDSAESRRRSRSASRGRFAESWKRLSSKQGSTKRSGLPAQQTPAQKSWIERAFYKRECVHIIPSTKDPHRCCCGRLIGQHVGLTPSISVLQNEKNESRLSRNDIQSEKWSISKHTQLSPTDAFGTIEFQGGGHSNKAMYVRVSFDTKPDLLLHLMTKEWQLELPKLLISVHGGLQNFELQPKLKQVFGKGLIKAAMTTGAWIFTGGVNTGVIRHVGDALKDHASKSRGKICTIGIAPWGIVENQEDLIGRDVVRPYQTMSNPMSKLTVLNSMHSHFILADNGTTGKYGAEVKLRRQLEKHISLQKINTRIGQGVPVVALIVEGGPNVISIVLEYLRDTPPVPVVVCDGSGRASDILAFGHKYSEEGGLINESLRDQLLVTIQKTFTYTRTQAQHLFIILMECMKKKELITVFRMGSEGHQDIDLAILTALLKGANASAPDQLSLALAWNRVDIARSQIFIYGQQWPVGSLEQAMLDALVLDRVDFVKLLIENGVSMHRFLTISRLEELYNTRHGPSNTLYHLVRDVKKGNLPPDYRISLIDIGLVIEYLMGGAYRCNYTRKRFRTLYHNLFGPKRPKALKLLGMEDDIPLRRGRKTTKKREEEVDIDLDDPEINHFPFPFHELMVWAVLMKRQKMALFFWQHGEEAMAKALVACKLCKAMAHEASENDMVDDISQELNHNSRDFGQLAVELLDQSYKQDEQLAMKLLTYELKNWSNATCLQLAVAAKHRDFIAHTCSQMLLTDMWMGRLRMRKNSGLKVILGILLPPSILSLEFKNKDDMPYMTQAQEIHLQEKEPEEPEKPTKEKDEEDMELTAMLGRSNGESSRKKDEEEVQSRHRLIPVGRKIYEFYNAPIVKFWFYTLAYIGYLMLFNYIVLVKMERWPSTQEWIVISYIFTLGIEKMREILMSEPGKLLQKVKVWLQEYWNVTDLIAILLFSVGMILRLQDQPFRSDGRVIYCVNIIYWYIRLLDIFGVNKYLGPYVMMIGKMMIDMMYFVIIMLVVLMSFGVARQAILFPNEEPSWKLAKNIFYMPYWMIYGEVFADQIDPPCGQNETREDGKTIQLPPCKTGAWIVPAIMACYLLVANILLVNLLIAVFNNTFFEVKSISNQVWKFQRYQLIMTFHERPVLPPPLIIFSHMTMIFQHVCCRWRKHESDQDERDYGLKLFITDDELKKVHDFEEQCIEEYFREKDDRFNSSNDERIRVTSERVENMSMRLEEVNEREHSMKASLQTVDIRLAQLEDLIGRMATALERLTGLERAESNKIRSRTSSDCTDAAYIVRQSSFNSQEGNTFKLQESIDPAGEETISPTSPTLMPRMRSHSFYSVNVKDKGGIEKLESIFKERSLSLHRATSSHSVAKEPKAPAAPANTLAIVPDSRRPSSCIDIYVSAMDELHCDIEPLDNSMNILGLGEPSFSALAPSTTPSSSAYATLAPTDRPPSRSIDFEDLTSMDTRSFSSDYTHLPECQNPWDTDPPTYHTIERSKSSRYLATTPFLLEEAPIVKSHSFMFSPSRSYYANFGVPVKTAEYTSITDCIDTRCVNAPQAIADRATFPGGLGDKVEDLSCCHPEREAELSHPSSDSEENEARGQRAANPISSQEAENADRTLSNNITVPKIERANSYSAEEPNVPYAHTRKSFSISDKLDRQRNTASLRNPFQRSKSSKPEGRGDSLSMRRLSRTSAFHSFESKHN
- METHOD_SUMMARY: TRPM3 ion channel driven Ca2+ uptake, Fluo-4 AM assay, stimulated with pregnenolone sulfate (50 μM)
- Type: cell-based
- CONDITION_DETAILS: TRPM3 overexpressing flip-in HEK293 cells, PS 50 μM, 2.4 mM Ca2+
READOUT_TYPE: IC50

Please give the documented IC50 of `Cc1ncsc1COc1ccn2nc(C)c(C(=O)NC(C)(CO)CO)c2c1`
1 to 20 µM

Please give the documented IC50 of `Cc1nn2ccc(OCc3ccccn3)cc2c1C(=O)NCC(C)(C)CN(C)C`
1 to 20 µM

Please give the documented IC50 of Cc1nn2ccc(OCc3ccccn3)cc2c1C(=O)N[C@@]1(CO)C[C@H]1C(F)F (relative stereo) [Cpd 072 - En2]
> 20 µM

Please give the documented IC50 of `Cc1nn2ccc(OCc3ccccc3)cc2c1C(=O)O`
> 20 µM

Please give the documented IC50 of Cc1nn2ccc(OCc3ccccn3)cc2c1C(=O)NC1CNCCC1(F)F (single isomer, unassigned) [Cpd 050 - En2]
1 to 20 µM

Please give the documented IC50 of CNC(=O)C(C)(CO)NC(=O)c1c(C)nn2ccc(OCc3ccccc3F)cc12 (single isomer, unassigned) [Cpd 011 - En2]
1 to 20 µM

Please give the documented IC50 of `Cc1nn2ccc(OCc3ccccc3F)cc2c1C(=O)O`
> 20 µM

Please give the documented IC50 of `Cc1nn2ccc(OCc3ccccn3)cc2c1C(=O)NCC(F)(F)c1ccccc1`
> 20 µM

Please give the documented IC50 of Cc1nn2ccc(OCc3ccccn3)cc2c1C(=O)NC(CO)C1CCOCC1 (centres unmarked)
> 20 µM

Please give the documented IC50 of `Cc1nn2ccc(OCc3ccccc3F)cc2c1C(=O)NCCNS(C)(=O)=O`
1 to 20 µM

Please give the documented IC50 of Cc1nn2ccc(OCc3ccccc3Cl)cc2c1C(=O)NC(C)(CO)C(N)=O (single isomer, unassigned) [Cpd 019 - En1]
< 1 µM
